# STUDY_TARGET: SSAO (bovine plasma amine oxidase, PAO) (Bos taurus)
# Construct: Bovine plasma amine oxidase (PAO) was purchased from Worthington Biochemical; purchased Worthington Biochemical (Lakewood, N.J.)
# Sequence (Q29437 17-762): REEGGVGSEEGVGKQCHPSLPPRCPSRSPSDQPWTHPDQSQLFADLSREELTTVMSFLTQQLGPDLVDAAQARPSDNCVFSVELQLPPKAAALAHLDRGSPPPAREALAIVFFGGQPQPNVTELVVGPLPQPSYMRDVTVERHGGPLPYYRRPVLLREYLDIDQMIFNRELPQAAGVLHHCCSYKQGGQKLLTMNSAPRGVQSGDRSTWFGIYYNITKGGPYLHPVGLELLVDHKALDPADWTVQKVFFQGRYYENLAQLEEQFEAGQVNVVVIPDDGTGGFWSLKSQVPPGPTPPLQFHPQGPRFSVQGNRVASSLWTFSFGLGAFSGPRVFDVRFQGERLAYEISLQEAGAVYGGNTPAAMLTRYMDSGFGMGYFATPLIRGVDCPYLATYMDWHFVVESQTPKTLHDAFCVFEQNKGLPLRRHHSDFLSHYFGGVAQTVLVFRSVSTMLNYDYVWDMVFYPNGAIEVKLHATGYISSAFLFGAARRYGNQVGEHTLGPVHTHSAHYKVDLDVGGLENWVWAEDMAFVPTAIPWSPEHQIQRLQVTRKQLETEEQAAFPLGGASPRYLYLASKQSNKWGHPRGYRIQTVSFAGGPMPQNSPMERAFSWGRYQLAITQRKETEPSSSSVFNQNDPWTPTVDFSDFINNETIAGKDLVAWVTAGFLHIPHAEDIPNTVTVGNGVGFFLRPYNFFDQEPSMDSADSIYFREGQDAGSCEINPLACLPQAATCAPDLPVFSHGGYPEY
# METHOD_DESCRIPTION: In vitro inhibition of SSAO activity, coupled colorimetric method
# Assay type: biochemical
Counter-ions that a name gives are not always drawn.
Hi there, I'd appreciate the recorded log10(IC50) for every entry that follows.
Answers are given as log10 of IC50 in nM.

Example cases with answers are listed next.
COMPOUND	NUMERIC_READOUT
NOCC(O)c1ccccc1 (centres unmarked) [Example 11, Hydrochloride]	1.70
C=C(CON)c1ccccc1 [Example 1, Hydrochloride]	1.46
C=C(CN(C)N)c1ccc(Cl)cc1.Cl [Example 4, Hydrochloride]	2.81

Working through the 4 compounds below one at a time, give log10(IC50) for each.
1. C=C(CNNC)c1ccc(F)cc1.Cl [Example 7, Hydrochloride]
2. C=C(CN(C)NC)c1ccc(Cl)cc1.Cl [Example 6, Hydrochloride]
3. COc1ccc(C(O)CON)cc1OC (centres unmarked) [Example 12, Hydrochloride]
4. C=C(C)CNN.Cl [Example 9, (2-methyl-allyl)hydrazine Hydrochloride]

Result block:
1: 3.42; 2: 3.67; 3: 1.95; 4: 1.74

Query block: Could you tell me which log10(IC50) is on file for C=C(CN(N)CC)c1ccc(Cl)cc1.Cl [Example 5, Hydrochloride] ?
Result block: 2.98

###

# STUDY_TARGET: recombinant human MAO-B (Homo sapiens)
# Construct: purchased BD Biosciences (MA, USA)
# Sequence (P27338 whole entry): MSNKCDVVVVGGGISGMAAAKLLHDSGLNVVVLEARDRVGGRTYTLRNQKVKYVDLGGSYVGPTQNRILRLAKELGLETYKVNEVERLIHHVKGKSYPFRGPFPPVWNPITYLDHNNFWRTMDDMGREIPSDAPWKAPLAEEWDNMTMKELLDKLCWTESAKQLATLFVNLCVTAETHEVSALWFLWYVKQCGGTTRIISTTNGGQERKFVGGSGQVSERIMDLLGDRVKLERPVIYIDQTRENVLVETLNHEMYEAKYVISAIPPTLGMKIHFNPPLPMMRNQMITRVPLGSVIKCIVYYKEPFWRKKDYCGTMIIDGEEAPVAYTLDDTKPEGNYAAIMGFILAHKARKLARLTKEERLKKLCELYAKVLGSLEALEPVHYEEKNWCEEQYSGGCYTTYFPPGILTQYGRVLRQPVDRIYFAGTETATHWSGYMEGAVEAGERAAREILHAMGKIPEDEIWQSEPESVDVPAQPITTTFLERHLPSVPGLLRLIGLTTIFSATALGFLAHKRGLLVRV
# METHOD_DESCRIPTION: Inhibition of MAO-B activity, colorimetric
# Format: biochemical
# SETUP_CONDITIONS: ratio IC50 MAO-B to IC50 SSAO
Where a name gives a salt, the structure may show the parent alone.
EXPERIMENTAL_ENDPOINT: Specificity for SSAO vs. MAO-B
One number for each entry.

Example cases with answers are listed next.
COMPOUND	Specificity for SSAO vs. MAO-B
C=C(CN(C)NC)c1ccc(Cl)cc1.Cl [Example 6]	0.60
C=C(CN(C)N)c1ccc(Cl)cc1.Cl [Example 4]	269
C=C(C)CNN.Cl [Example 9, (2-methyl-allyl)hydrazine Hydrochloride]	360
NOCC(O)c1ccccc1 (stereo not drawn) [Example 11, Hydrochloride]	9000

Working through the 4 compounds below one at a time, give Specificity for SSAO vs. MAO-B for each.
1. C=C(CNN)c1ccc(Cl)cc1.Cl [Example 3]
2. C=C(CNNC)c1ccc(F)cc1.Cl [Example 7]
3. C=C(CN(N)CC)c1ccc(Cl)cc1.Cl [Example 5]
4. Cl.NNC/C(=C/F)c1ccccc1 [Example 10]

Result block:
1. 490
2. 80
3. 163
4. 10

###

# STUDY_TARGET: recombinant human MAO-A (Homo sapiens, UniProt P21397)
# Construct: purchased BD Biosciences (MA, USA)
# Sequence (P21397 whole entry): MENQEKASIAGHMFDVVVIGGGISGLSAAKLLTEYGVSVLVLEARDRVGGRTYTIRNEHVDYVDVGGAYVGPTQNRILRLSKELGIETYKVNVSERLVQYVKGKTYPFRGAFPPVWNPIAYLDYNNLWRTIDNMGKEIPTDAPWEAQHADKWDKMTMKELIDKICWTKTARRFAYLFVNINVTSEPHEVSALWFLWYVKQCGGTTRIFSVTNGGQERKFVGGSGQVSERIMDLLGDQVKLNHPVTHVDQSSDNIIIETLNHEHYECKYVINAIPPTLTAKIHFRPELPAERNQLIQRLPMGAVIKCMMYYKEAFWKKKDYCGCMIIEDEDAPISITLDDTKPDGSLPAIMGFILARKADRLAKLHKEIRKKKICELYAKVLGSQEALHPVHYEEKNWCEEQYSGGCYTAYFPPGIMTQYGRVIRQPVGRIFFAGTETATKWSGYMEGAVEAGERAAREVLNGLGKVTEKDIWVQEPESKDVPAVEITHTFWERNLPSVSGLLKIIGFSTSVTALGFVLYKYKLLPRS
# METHOD_DESCRIPTION: Inhibition of MAO-A activity, colorimetric
# Assay type: biochemical
Counter-ions that a name gives are not always drawn.
EXPERIMENTAL_ENDPOINT: IC50 (µM)
Numbers only, in µM.

COMPOUND	NUMERIC_READOUT
C=C(C)CNN.Cl [Example 9, (2-methyl-allyl)hydrazine Hydrochloride]	350
C=C(CN(N)CC)c1ccc(Cl)cc1.Cl [Example 5, Hydrochloride]	690
C=C(CNNC)c1ccc(F)cc1.Cl [Example 7, Hydrochloride]	620
COc1ccc(C(O)CON)cc1OC (stereo not drawn) [Example 12, Hydrochloride]	3.6
C=C(CNN)c1ccccc1 [Example 2, Hydrochloride]	225

Working through the 3 compounds below one at a time, give IC50 for each.
1. NOCC(O)c1ccccc1 (stereo not drawn) [Example 11, Hydrochloride]
2. C=C(CN(C)N)c1ccc(Cl)cc1.Cl [Example 4, Hydrochloride]
3. C=C(CN(C)NC)c1ccc(Cl)cc1.Cl [Example 6, Hydrochloride]

Result block:
1: 250; 2: 260; 3: 300

Query block: # query: IC50 | item C=C(CON)c1ccccc1 [Example 1, Hydrochloride] | system: recombinant human MAO-A (Homo sapiens, UniProt P21397)
Result block: 900
